biological target: T1, human CD3 E&D complex protein (Sino Biological Inc., CT026H0323H) (human, UniProt P07766 23-126; P04234 22-105); assay: BLI, antibody on sensor
T1 construct: bought heterodimer; also called human CD3 protein (CT026H0323H)
T1 sequence (P07766 23-126, chain 1 of 2): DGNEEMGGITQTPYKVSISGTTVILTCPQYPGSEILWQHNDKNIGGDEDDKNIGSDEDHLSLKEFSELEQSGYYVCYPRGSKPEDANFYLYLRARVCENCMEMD
T1 sequence (P04234 22-105, chain 2 of 2): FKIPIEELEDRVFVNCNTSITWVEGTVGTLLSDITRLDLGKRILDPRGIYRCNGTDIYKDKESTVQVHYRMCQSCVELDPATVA
endpointLabel: kon (M⁻¹ s⁻¹)
API: value field is a number in M⁻¹ s⁻¹; no unit string.

Solved entries (count: 2):
binder	kon [M⁻¹ s⁻¹]
hzsp34.24 (antibody, human IgG1, lambda, L234A L235A, V domains shown, IgG1 L234A L235A, lambda; parent of the CDR mutants) VH: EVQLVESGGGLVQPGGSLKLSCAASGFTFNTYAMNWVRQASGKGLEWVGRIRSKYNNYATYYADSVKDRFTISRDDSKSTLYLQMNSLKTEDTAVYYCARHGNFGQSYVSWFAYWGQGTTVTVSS VL: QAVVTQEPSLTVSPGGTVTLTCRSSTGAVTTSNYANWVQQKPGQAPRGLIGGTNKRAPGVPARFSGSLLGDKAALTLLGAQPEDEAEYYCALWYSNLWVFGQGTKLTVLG	3.44e+06
hzsp34.15 (antibody, human IgG1, lambda, L234A L235A, V domains shown, IgG1 L234A L235A, lambda) VH: EVQLVESGGGLVQPGGSLKLSCAASGFTFNTYAMNWVRQASGKGLEWVARIRSKYNNYATYYADSVKDRFTISRDDSKSTLYLQMNSLKTEDTAVYYCARHGNFGQSYVSWFAYWGQGTTVTVSS VL: QAVVTQEPSLTVSPGGTVTLTCRSSTGAVTTSNYANWVQQKPGQAPRTLIGGTNKRAPGVPARFSGSLLGGKAALTLLGAQPEDEAEYYCALWYSNLWVFGQGTKLTVLG	644000

In the following, a different binder is considered.
### Prompt May I ask what kon has been recorded for hzsp34.13 (antibody, human IgG1, lambda, L234A L235A, V domains shown, IgG1 L234A L235A, lambda) VH: EVQLVESGGGLVQPGGSLKLSCAASGFTFNTYAMNWVRQASGKGLEWVGRIRSKYNNYATYYADSVKDRFTISRDDSKSTLYLQMNSLKTEDTAVYYCARHGNFGNSYVSWFAYWGQGTTVTVSS VL: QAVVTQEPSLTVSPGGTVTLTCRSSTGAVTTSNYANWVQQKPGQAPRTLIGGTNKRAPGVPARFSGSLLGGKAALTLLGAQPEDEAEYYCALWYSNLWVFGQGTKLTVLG ?
### Response 1.08e+06
